# System: Perilipin-1 (Homo sapiens) (UniProt O60240)
# Sequence (O60240 whole entry, looked up, the tested form may be a part): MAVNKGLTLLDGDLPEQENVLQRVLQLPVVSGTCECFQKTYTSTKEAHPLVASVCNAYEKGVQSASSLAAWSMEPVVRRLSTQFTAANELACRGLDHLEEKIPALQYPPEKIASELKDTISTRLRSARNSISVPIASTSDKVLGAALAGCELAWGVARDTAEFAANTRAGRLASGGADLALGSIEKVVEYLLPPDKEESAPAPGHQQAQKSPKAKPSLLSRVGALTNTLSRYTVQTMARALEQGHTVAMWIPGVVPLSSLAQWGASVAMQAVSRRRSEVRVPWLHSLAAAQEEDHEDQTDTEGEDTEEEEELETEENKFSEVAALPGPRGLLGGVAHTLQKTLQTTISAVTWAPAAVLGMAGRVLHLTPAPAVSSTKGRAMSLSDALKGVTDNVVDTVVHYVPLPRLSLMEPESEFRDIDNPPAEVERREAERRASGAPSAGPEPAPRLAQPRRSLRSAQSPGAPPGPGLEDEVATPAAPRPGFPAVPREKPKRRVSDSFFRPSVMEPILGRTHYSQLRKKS
# Protocol Text: inhibitors of ABHD5-PLIN1 binding, dose response, counter-screen for ABHD5-PLIN5 interaction inhibitor project, biochemical, luminescence (AID 651672);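 also: split Gaussia luciferase complementation between ABHD5 and PLIN1 fusion fragments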
The source made the active and inactive calls. No rule for the calls is given here.
Please answer using one outcome listed in true (active), false (inactive)

CCOC(=O)N1CCN(C(=O)C[C@@H]2C[C@@]3(C(=O)OCC)CCC=C3N(Cc3ccc(Cl)cc3Cl)C2=O)CC1
true
COc1ccccc1-c1cc(C(=O)NC2CCN(C)CC2)c2ccc(Cl)c(C)c2n1
false
Cc1cccc(C)c1NC(=O)C(c1ccncc1)n1c(=O)c(-c2ccco2)nc2ccccc21 (centres undefined)
true

IN: State the result this test recorded for CC(=O)Oc1c(Cl)c(N2CCOCC2)c(OC(C)=O)c2ccccc12 .
OUT: true

IN: State the result this test recorded for CCCCCCC=C1CCC(CN2CCCC2)C1=O (centres undefined) .
OUT: true

====

# System: Perilipin-1 (Homo sapiens)
# Protocol Text: inhibitors of ABHD5-PLIN1 binding, dose response, counter-screen for ABHD5-PLIN5 interaction inhibitor project, biochemical, luminescence (AID 651672);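 also: split Gaussia luciferase complementation between ABHD5 and PLIN1 fusion fragments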
The source made the active and inactive calls. How the calls were made is not given here.
Please answer using one outcome listed in active, inactive

Example entries begin here.
O=[N+]([O-])/C=C/c1cn(Cc2ccc(F)cc2)c2ccccc12
active
NC(=O)CCN1CCN(CCOC2Cc3cc(Cl)ccc3Sc3ccccc32)CC1 (stereo unspecified)
inactive
CCCCCNC(=O)C(c1ccc(OC)cc1)n1c(=O)c(-c2ccco2)nc2ccccc21 (stereo unspecified)
active
CCCCCNC(=O)C(c1ccc(C(F)(F)F)cc1)n1c(=O)c(-c2ccco2)nc2ccccc21 (stereo unspecified)
active
O=C(O)CC(O)(CC(=O)O)C(=O)O
active
CCCNC(=O)Nc1ccc2c(c1)N(C)C(=O)c1ccccc1S2
active
CC(CCc1ccco1)NC(=O)CCc1nnc2ccc(NCc3ccccc3Cl)nn12 (stereo unspecified)
active
CC1=CC2C(C(O)CC3(C)C2CC(C)C32OCOC23COCO3)C2(C)C/C(=C\O)C(=O)C=C12 (stereo unspecified)
active
O=C(/C=C/Sc1ccccc1)c1ccc(Cl)cc1
active
CCOC(=O)/C(=C\c1ccc(Cl)cc1)c1nc2sc(C)c(C)c2c(=O)[nH]1
active

IN: State the result this test recorded for CC(=O)Nc1ccc(OCc2cn(CC(=O)c3ccc(O)cc3)nn2)cc1 .
OUT: active

IN: State the result this test recorded for CCN1C/C(=C/c2ccc(OC)c(O)c2)C(=O)/C(=C/c2ccc(OC)c(O)c2)C1 .
OUT: active

IN: State the result this test recorded for Cc1ccc2c(CC(=O)N3CCN(S(=O)(=O)c4ccc5c(c4)OCCO5)CC3)coc2c1 .
OUT: active

IN: State the result this test recorded for Cc1ccc2sc(N(CCCN(C)C)C(=O)CN3C(=O)c4ccccc4C3=O)nc2c1C .
OUT: inactive

IN: State the result this test recorded for COC(=O)c1ccc(Cn2cc(/C=C\[N+](=O)[O-])c3ccccc32)o1 .
OUT: inactive

IN: State the result this test recorded for O=c1c(-c2ccco2)nc2ccccc2n1C(CCc1ccccc1)c1nc2ccccc2[nH]1 (stereo unspecified) .
OUT: active

IN: State the result this test recorded for Cc1oc2c(c1C(=O)c1ccc(Cl)cc1)C(=O)C(=O)c1ccccc1-2 .
OUT: active

IN: State the result this test recorded for O=C(/C=C/c1ccc(NC(=O)c2ccccc2-c2ccccc2C(=O)O)cc1)c1ccccc1 .
OUT: active
